test system: HCT-116; assay: Antiproliferative activity against human HCT116 cells assessed as reduction in cell viability measured after 24 to 48 hrs by MTT assay; assay type: functional, cell-based
pIC50: −log10 of the molar value.
Items are presented alongside their recorded pIC50.

// solved cases for pIC50 follow
(Q) Consider the compound shown here: "Cc1cc(C)cc(-c2nc3sc4c(c3c(=O)[nH]2)CCC4)c1" What is its recorded pIC50?
(A) < 5.00

(Q) Consider the compound shown here: "O=c1[nH]c(-c2ccccc2)nc2sc3c(c12)CCC3" What is its recorded pIC50?
(A) < 5.00

Further cases:
(Q) Consider the compound shown here: "CCN1CCc2c(sc3nc(-c4ccc(O)cc4)[nH]c(=O)c23)C1" What is its recorded pIC50?
(A) < 5.00
